- target.entity: oxidizing phosphorylation in mitochondria of a rat's liver
- measurement.notes: Oxidizing phosphorylation of rat liver mitochondria
- applied.conditions: rat liver mitochondria
Assign pKi to each entry below.
Numbers only, as −log10 of the molar value.

Would you please look over these solved cases?
>>> print(df.to_string())
                                   molecule  observable  observed_result
0  COc1ccc(Cl)cc1C(=O)NCCc1ccc(S(=O)(=O)NC(=O)NC2CCCCC2)cc1 [Glibenclamide]         pKi             4.66
1  Cc1ccc(S(=O)(=O)NC(=O)N[C@H]2[C@H]3CC[C@@](C)([C@H]2O)C3(C)C)cc1 [Glibornuride, reference compound]         pKi             3.12

Input: Entry Cc1ccn(C(=O)NCCc2ccc(S(=O)(=O)NC(=O)NC3CCCCC3)cc2)n1 [SPC-5002] , system oxidizing phosphorylation in mitochondria of a rat's liver: what pKi was measured?
Output: 3.22

====

- System: blood-glucose concentration
- measurement.notes: Decrease in blood-glucose concentration in rats after oral dose (Table 1; ED30 rats Table 2)
- Assay type: in vivo
- applied.conditions: Rattus norvegicus, po, p.os. 1 mg/kg, 1 h
Label fulfilled when inhibition in vivo at 1 mg/kg >= 20%; otherwise not fulfilled.

>>> print(df.to_string())
                                 cpd_smiles  assigned_category
0  CCCCNC(=O)NS(=O)(=O)c1ccc(CCNC(=O)n2ccc(C)n2)cc1          fulfilled
1  O=C(NC1CCCCC1)NS(=O)(=O)c1ccc(CCNC(=O)n2cccn2)cc1          fulfilled
2  CCc1cnn(C(=O)NCCc2ccc(S(=O)(=O)NC(=O)NC3CCCCC3)cc2)c1          fulfilled
3  Cc1ccn(C(=O)NCCc2ccc(S(=O)(=O)NC(=O)NC3CCCCC3)cc2)n1      not fulfilled
4  CCc1nn(C(=O)NCCc2ccc(S(=O)(=O)NC(=O)NC3CCCCC3)cc2)cc1C      not fulfilled

Moving on to the next compound.
Input: Exam item: decide whether the reported inhibition in vivo at 1 mg/kg for "Cc1nn(C(=O)NCCc2ccc(S(=O)(=O)NC(=O)NC3CCCCC3)cc2)c(C)c1Cl" is at least 20%.
Output: not fulfilled

====

- target.entity: oxygen consumption in mitochondria of a rat's liver
- measurement.notes: Oxygen consumption of rat liver mitochondria
- applied.conditions: rat liver mitochondria
- Description: 2-oxoglutaran 2 mM, ADP 1 mM, mitochondria | protein 4 mg/m. […] The
observable: pKi
One number for each entry, as −log10 of the molar value.

Below are worked cases with known answers.
>>> print(df.to_string())
                                   compound  observable  observed_result
0  Cc1ccc(S(=O)(=O)NC(=O)N[C@H]2[C@H]3CC[C@@](C)([C@H]2O)C3(C)C)cc1 [Glibornuride, reference compound]         pKi             2.94
1  COc1ccc(Cl)cc1C(=O)NCCc1ccc(S(=O)(=O)NC(=O)NC2CCCCC2)cc1 [Glibenclamide]         pKi             4.52

Input: Quick check: pKi on oxygen consumption in mitochondria of a rat's liver, item "Cc1ccn(C(=O)NCCc2ccc(S(=O)(=O)NC(=O)NC3CCCCC3)cc2)n1" ?
Output: 3.12

====

- Test system: blood-glucose concentration
- measurement.notes: Decrease in blood-glucose concentration in rats after oral dose (Table 1; ED30 rats Table 2)
- Assay type: in vivo
- applied.conditions: Rattus norvegicus, po, p.os. 10 mg/kg, 6 h
// label = satisfied if inhibition in vivo at 10 mg/kg is not less than 30%, otherwise not satisfied

Input: Evaluate "Cc1cc(C)n(C(=O)NCCc2ccc(S(=O)(=O)NC(=O)NC3CCCCC3)cc2)n1" : inhibition in vivo at 10 mg/kg at minimum 30%?
Output: satisfied

Input: Decide: is the reported value of inhibition in vivo at 10 mg/kg for "CCc1nn(C(=O)NCCc2ccc(S(=O)(=O)NC(=O)NC3CCCCC3)cc2)cc1C" equal to or greater than 30%?
Output: not satisfied

Input: Item "O=C(NC1CCCCC1)NS(=O)(=O)c1ccc(CCNC(=O)n2cccn2)cc1" with inhibition in vivo at 10 mg/kg of 30% or above?
Output: not satisfied

Input: inhibition in vivo at 10 mg/kg >= 30% for "CCCNC(=O)NS(=O)(=O)c1ccc(CCNC(=O)n2ccc(C)n2)cc1" ?
Output: satisfied

Input: Identify whether the reported inhibition in vivo at 10 mg/kg of the following compound is 30% or greater: "CCc1cnn(C(=O)NCCc2ccc(S(=O)(=O)NC(=O)NC3CCCCC3)cc2)c1"
Output: not satisfied

Input: In plain terms: is recorded inhibition in vivo at 10 mg/kg at least 30% for "Cc1cnn(C(=O)NCCc2ccc(S(=O)(=O)NC(=O)NC3CCCCC3)cc2)c1" ?
Output: satisfied

Input: Is it the case that "Cc1nn(C(=O)NCCc2ccc(S(=O)(=O)NC(=O)NC3CCCCC3)cc2)c(C)c1C" has inhibition in vivo at 10 mg/kg reaching or exceeding 30%?
Output: not satisfied

Input: Answer whether inhibition in vivo at 10 mg/kg of "CCCc1c(C)nn(C(=O)NCCc2ccc(S(=O)(=O)NC(=O)NC3CCCCC3)cc2)c1C" is greater than or equal to 30%.
Output: not satisfied

Input: Could you please find out whether "O=C(NC1CCCC1)NS(=O)(=O)c1ccc(CCNC(=O)n2cccn2)cc1" has inhibition in vivo at 10 mg/kg that meets 30% or exceeds it?
Output: not satisfied

Input: Determine whether this compound has inhibition in vivo at 10 mg/kg no lower than 30%: "Cc1cnn(C(=O)NCCc2ccc(S(=O)(=O)NC(=O)NC3CCCC3)cc2)c1"
Output: not satisfied

Input: Hi, just wondering whether "Cc1nn(C(=O)NCCc2ccc(S(=O)(=O)NC(=O)NC3CCCCC3)cc2)cc1Cl" shows inhibition in vivo at 10 mg/kg of 30% or higher.
Output: not satisfied

Input: Can "Cc1cn(C(=O)NCCc2ccc(S(=O)(=O)NC(=O)NC3CCCCC3)cc2)nc1C" be said to have inhibition in vivo at 10 mg/kg at or above 30%?
Output: not satisfied

Input: Please tell me: is the compound "CCCCNC(=O)NS(=O)(=O)c1ccc(CCNC(=O)n2ccc(C)n2)cc1" at or over 30% in terms of inhibition in vivo at 10 mg/kg?
Output: satisfied

====

- measurement.notes: Oral toxicity in rats (LD50)
- applied.conditions: rat, in vivo
observable: LD50

Input: Would you mind telling me what LD50 value was observed for "Cc1ccn(C(=O)NCCc2ccc(S(=O)(=O)NC(=O)NC3CCCCC3)cc2)n1" ?
Output: > 15000 mg/kg

====

- System: blood-glucose concentration
- measurement.notes: Decrease in blood-glucose concentration in rats after oral dose (Table 1; ED30 rats Table 2)
- Assay type: in vivo
- applied.conditions: Rattus norvegicus, po, p.os. 10 mg/kg, 1 h
Give inhibition in vivo at 10 mg/kg for every item shown.
Numbers only, in %.

                                   compound  observed_result
0  CCCc1c(C)nn(C(=O)NCCc2ccc(S(=O)(=O)NC(=O)NC3CCCCC3)cc2)c1C [compound 12]               14
1  O=C(NC1CCCC1)NS(=O)(=O)c1ccc(CCNC(=O)n2cccn2)cc1 [compound 15]               20
2  Cc1cnn(C(=O)NCCc2ccc(S(=O)(=O)NC(=O)NC3CCCCC3)cc2)c1 [compound 3]               52
3  Cc1ccn(C(=O)NCCc2ccc(S(=O)(=O)NC(=O)NC3CCCC3)cc2)n1 [compound 16]               16

Give inhibition in vivo at 10 mg/kg for each of the items listed below.
1. CCc1nn(C(=O)NCCc2ccc(S(=O)(=O)NC(=O)NC3CCCCC3)cc2)cc1C [compound 8]
2. O=C(NC1CCCCC1)NS(=O)(=O)c1ccc(CCNC(=O)n2cc(Cl)cn2)cc1 [compound 5]
3. CCc1c(C)nn(C(=O)NCCc2ccc(S(=O)(=O)NC(=O)NC3CCCCC3)cc2)c1C [compound 11]
4. CCc1cnn(C(=O)NCCc2ccc(S(=O)(=O)NC(=O)NC3CCCCC3)cc2)c1 [compound 4]
5. CCCCNC(=O)NS(=O)(=O)c1ccc(CCNC(=O)n2ccc(C)n2)cc1 [compound 21]

Output:
1. 27
2. 16
3. 29
4. 55
5. 55

====

What inhibition in vivo at 1 mg/kg was measured for each of the following?
- Test system: blood-glucose concentration
- measurement.notes: Decrease in blood-glucose concentration in rats after oral dose (Table 1; ED30 rats Table 2)
- Type: in vivo
- applied.conditions: Rattus norvegicus, po, p.os. 1 mg/kg, 3 h

Consider the worked cases shown below.
In [3]: df
Out[3]:
                                 cpd_smiles  observed_result
0  Cc1ccn(C(=O)NCCc2ccc(S(=O)(=O)NC(=O)NC3CCCCC3)cc2)n1               9%
1  CCc1cnn(C(=O)NCCc2ccc(S(=O)(=O)NC(=O)NC3CCCCC3)cc2)c1               4%
2  CCc1nn(C(=O)NCCc2ccc(S(=O)(=O)NC(=O)NC3CCCCC3)cc2)cc1C              18%

I'm hoping you can list inhibition in vivo at 1 mg/kg for every compound here, please.
1. Cc1cnn(C(=O)NCCc2ccc(S(=O)(=O)NC(=O)NC3CCCCC3)cc2)c1
2. O=C(NC1CCCCC1)NS(=O)(=O)c1ccc(CCNC(=O)n2cccn2)cc1
3. CCCCNC(=O)NS(=O)(=O)c1ccc(CCNC(=O)n2ccc(C)n2)cc1
4. Cc1nn(C(=O)NCCc2ccc(S(=O)(=O)NC(=O)NC3CCCCC3)cc2)c(C)c1Cl

Output:
18%
27%
23%
21%
